remaining activity at 1 µM values by entry
tgt: E. coli topoisomerase IV (Escherichia coli)
Construct: purchased Inspiralis
method notes: biochemical
study conditions: E. coli topo IV; 1 μM compound; read-out: RA (residual activity of the enzyme)

Past entries and their recorded results:
# molecule, tgt, remaining activity at 1 µM
data = [
    ("Cc1[nH]c(C(=O)Nc2ccc(-c3n[nH]c(=O)o3)cc2N2CC[C@H](N)C2)c(Cl)c1Cl.Cl [Example 20]", "E. coli topoisomerase IV (Escherichia coli)", "105%"),
    ("Cc1[nH]c(C(=O)Nc2ccc(-c3n[nH]c(=O)o3)cc2N2CC(C)OC(C)C2)c(Cl)c1Cl (stereo not shown) [Example 44]", "E. coli topoisomerase IV (Escherichia coli)", "105%"),
    ("Cc1[nH]c(C(=O)Nc2ccc(-c3n[nH]c(=O)o3)cc2N2CCNCC2)c(Cl)c1Cl.Cl [Example 41]", "E. coli topoisomerase IV (Escherichia coli)", "71%"),
    ("Cc1[nH]c(C(=O)Nc2ccc(-c3n[nH]c(=O)o3)cc2N2CCOCC2)c(Cl)c1Cl [Example 42]", "E. coli topoisomerase IV (Escherichia coli)", "66%"),
    ("Cc1[nH]c(C(=O)Nc2ccc(-c3n[nH]c(=O)o3)cc2N2CCOC(C)C2)c(Cl)c1Cl (stereo not shown) [Example 43]", "E. coli topoisomerase IV (Escherichia coli)", "103%"),
]

## Task Request the reported remaining activity at 1 µM associated with Cc1[nH]c(C(=O)Nc2ccc(-n3nn[nH]c3=O)cc2N2CC[C@H](N)C2)c(Cl)c1Cl.Cl [Example 22]
## Result 97%

## Task Tell me the measured remaining activity at 1 µM of Cc1[nH]c(C(=O)Nc2ccc(-c3noc(=O)[nH]3)cc2N2CCC(N)CC2)c(Cl)c1Cl.Cl [Example 1] , please.
## Result 33%

====

System: K. pneumoniae ATCC 10031
method notes: Microbroth dilution MIC (CLSI)
Type: cell-based
study conditions: Klebsiella pneumoniae, ATCC10031; K. pneumoniae ATCC 10031; read-out: MIC
# MIC values compiled below
Quick note: give the figure in µg/mL, leave out the unit.

# chemical structure, MIC, µg/mL
measured = [
    ("Cc1[nH]c(C(=O)Nc2ccc(-c3noc(=O)[nH]3)cc2N2CCC(N)CC2)c(Cl)c1Cl.Cl", 64),
    ("Cc1[nH]c(C(=O)Nc2ccc(-c3n[nH]c(=O)o3)cc2N2CCC[C@H](N)C2)c(Cl)c1Cl.Cl", 0.25),
]

## Task # query: MIC of entry "Cc1[nH]c(C(=O)Nc2ccc(-c3n[nH]c(=O)o3)cc2N2CCNCC2)c(Cl)c1Cl.Cl"
## Result 0.25

====

tgt: E. coli topoisomerase IV (Escherichia coli, UniProt P20083)
Construct: purchased Inspiralis
Sequence (P0AFI2 whole entry): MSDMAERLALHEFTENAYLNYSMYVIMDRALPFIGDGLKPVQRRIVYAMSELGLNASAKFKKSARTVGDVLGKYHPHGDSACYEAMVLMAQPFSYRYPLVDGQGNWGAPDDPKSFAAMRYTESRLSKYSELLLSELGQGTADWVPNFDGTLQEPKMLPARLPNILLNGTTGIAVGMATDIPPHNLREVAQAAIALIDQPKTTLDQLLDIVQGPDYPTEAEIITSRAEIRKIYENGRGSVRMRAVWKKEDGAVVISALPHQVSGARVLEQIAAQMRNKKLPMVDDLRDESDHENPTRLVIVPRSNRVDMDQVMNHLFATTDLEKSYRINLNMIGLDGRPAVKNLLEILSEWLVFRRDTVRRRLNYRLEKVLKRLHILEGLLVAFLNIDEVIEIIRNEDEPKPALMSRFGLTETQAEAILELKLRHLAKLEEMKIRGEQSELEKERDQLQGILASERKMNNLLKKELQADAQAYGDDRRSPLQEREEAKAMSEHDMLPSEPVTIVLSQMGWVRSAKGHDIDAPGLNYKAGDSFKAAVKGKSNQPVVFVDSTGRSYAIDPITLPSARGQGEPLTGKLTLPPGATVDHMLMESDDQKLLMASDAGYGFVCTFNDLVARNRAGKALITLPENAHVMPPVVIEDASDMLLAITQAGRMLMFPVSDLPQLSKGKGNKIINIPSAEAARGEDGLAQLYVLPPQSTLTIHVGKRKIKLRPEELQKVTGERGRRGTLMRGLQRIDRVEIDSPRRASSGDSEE
Sequence (P20083 whole entry): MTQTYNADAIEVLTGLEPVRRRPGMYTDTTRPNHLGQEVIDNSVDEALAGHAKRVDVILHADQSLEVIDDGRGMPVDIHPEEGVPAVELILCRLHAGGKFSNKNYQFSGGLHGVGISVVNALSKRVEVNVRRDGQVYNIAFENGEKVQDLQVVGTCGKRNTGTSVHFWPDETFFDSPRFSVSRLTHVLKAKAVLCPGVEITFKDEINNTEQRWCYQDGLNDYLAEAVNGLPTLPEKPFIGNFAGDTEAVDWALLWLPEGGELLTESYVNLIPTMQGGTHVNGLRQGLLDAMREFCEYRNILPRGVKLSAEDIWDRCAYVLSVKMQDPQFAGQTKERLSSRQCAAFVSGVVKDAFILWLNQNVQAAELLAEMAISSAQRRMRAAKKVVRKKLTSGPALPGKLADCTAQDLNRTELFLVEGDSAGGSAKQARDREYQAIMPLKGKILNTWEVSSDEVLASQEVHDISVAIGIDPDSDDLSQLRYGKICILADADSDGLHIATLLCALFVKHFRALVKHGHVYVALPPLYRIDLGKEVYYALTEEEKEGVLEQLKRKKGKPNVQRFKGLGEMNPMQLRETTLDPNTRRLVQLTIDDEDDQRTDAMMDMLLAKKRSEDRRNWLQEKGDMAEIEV
method notes: biochemical
observation type: IC50 (nM)
Please give a number only; it is taken to be in nM.

## Task Entry "Cc1[nH]c(C(=O)Nc2ccc(-c3noc(=O)[nH]3)cc2NC2CCNCC2)c(Cl)c1Cl.Cl" has what IC50?
## Result 1180

====

tgt: E. coli topoisomerase IV (Escherichia coli)
Construct: purchased Inspiralis
method notes: biochemical
study conditions: read-out: IC50
Procedure: Inhibitory activities for compounds of the present invention were determined on E. coli and S. aureus DNA gyrase and topoisomerase IV in an assay from Inspiralis on streptavidin-coated 96-well microtiter plates from Thermo scientific Pierce. […] After washing off the unbound oligonucleotide, the enzyme test was performed. […] Reaction solutions were incubated at 37° C. for 30 min. […]
observation type: IC50
Give the figure together with its unit, number first.

## Task Record lookup: for E. coli topoisomerase IV (Escherichia coli), what IC50 belongs to Cc1[nH]c(C(=O)Nc2ccc(C(=O)NCC(=O)O)cc2N2CC[C@@H](N)C2)c(Cl)c1Cl [Example 34] ?
## Result 2370 nM

====

tgt: E. coli DNA gyrase (Escherichia coli, UniProt P0AES6)
Construct: purchased Inspiralis
method notes: biochemical
study conditions: E. coli DNA gyrase; read-out: IC50
Entries and their log10(IC50)
Please keep in mind that the values are log10 of IC50 expressed in nM.

# molecule, tgt, experimental value
records = [
    ("Cc1[nH]c(C(=O)Nc2ccc(-c3noc(=O)[nH]3)cc2N2CCOCC2)c(Cl)c1Cl", "E. coli DNA gyrase (Escherichia coli, UniProt P0AES6)", 1.11),
    ("Cc1[nH]c(C(=O)Nc2ccc(-c3noc(=O)[nH]3)cc2N2CCN(c3ccccc3)CC2)c(Cl)c1Cl", "E. coli DNA gyrase (Escherichia coli, UniProt P0AES6)", 2.04),
    ("Cl.N[C@H]1CCN(c2cc(C(=O)NCC(=O)O)ccc2NC(=O)c2cc(Br)c(Br)[nH]2)C1", "E. coli DNA gyrase (Escherichia coli, UniProt P0AES6)", 1.55),
    ("Cc1[nH]c(C(=O)Nc2ccc(-n3nn[nH]c3=O)cc2N2CCN(c3ccccc3)CC2)c(Cl)c1Cl", "E. coli DNA gyrase (Escherichia coli, UniProt P0AES6)", 0.89),
]

## Task Need log10(IC50) of Cc1[nH]c(C(=O)Nc2ccc(-c3n[nH]c(=O)o3)cc2N2CCOC(C)C2)c(Cl)c1Cl (stereo not shown) , thanks.
## Result 1.73

## Task I have this molecule here, "Cc1[nH]c(C(=O)Nc2ccc(-c3n[nH]c(=O)o3)cc2OCc2ccccc2)c(Cl)c1Cl" , and I need its recorded log10(IC50).
## Result 2.95

## Task Any idea what its log10(IC50) is? The molecule is Cc1[nH]c(C(=O)Nc2ccc(-c3n[nH]c(=O)o3)cc2N2CC(C)OC(C)C2)c(Cl)c1Cl (stereo not shown)
## Result 2.04

====

tgt: S. aureus DNA gyrase (Staphylococcus aureus, UniProt P0A0K8)
Construct: purchased Inspiralis
Sequence (P20831 whole entry): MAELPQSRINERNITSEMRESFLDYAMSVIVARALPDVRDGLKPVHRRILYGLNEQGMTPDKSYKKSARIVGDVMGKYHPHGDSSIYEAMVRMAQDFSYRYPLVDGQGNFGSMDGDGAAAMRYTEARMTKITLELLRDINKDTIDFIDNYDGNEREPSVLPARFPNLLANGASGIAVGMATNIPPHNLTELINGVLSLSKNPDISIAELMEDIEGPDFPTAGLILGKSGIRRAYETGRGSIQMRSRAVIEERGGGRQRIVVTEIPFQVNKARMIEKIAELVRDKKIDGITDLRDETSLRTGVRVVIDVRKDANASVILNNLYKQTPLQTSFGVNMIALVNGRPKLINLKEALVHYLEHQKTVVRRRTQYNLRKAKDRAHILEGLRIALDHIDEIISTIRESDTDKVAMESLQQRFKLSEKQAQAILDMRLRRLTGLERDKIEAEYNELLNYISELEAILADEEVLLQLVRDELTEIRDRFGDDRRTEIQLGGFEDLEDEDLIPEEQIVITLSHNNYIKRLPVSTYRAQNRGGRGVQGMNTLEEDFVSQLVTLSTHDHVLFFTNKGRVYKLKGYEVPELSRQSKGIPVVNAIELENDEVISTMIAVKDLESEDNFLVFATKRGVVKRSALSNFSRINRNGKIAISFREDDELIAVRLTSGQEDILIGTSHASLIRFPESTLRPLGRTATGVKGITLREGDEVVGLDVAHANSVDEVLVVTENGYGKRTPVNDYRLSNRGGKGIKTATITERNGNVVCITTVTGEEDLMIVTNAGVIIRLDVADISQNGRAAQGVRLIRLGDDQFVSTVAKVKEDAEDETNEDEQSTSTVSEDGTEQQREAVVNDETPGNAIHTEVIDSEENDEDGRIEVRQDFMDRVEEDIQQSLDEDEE
Sequence (P0A0K8 whole entry): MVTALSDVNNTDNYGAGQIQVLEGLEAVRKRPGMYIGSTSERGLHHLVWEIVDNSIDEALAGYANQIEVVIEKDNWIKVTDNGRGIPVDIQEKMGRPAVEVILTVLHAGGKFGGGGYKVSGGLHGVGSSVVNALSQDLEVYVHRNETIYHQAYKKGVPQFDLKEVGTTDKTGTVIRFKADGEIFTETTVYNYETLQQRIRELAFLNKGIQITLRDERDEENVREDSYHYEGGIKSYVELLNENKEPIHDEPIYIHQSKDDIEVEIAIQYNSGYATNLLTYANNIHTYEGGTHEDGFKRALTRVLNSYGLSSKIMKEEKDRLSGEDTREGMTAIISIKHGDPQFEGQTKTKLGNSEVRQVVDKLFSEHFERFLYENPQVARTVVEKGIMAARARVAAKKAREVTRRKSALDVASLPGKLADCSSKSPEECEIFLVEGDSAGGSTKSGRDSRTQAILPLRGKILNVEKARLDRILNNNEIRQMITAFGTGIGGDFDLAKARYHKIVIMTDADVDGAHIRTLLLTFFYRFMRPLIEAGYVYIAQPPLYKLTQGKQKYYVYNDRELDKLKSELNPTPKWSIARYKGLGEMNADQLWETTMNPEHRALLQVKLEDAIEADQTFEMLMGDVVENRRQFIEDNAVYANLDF
method notes: biochemical
study conditions: read-out: IC50
observation type: IC50 (nM)
I only need the number, in nM, no unit after it.

## Task What value of measured IC50 is listed for "Cc1[nH]c(C(=O)Nc2ccc(C(=O)NCC(=O)O)cc2N2CC[C@@H](N)C2)c(Cl)c1Cl" ?
## Result 1240

====

tgt: E. coli DNA gyrase (Escherichia coli)
Construct: purchased Inspiralis
method notes: biochemical
study conditions: E. coli DNA gyrase; read-out: IC50
Listed here are compounds together with their documented pIC50.
Note on units: pIC50 is unitless, being -log10 of a concentration expressed in mol/L.

Here is how some compounds turned out for pIC50.
# compound, pIC50
data = [
    ("Cc1[nH]c(C(=O)Nc2ccc(-c3noc(=O)[nH]3)cc2N2CCNCC2)c(Cl)c1Cl", 8.22),
    ("Cc1[nH]c(C(=O)Nc2ccc(-c3noc(=O)[nH]3)cc2N2CCC(N)CC2)c(Cl)c1Cl.Cl", 9.60),
    ("Cc1[nH]c(C(=O)Nc2ccc(-c3n[nH]c(=O)o3)cc2OC2CCNC2)c(Cl)c1Cl.Cl (centres unmarked)", 8.45),
    ("Cc1[nH]c(C(=O)Nc2ccc(-c3nnn[nH]3)cc2N2CCOCC2)c(Cl)c1Cl", 7.35),
    ("Cc1[nH]c(C(=O)Nc2ccc(-n3nn[nH]c3=O)cc2N2CC[C@H](N)C2)c(Cl)c1Cl.Cl", 8.31),
]

## Task Which measured pIC50 value corresponds to "Cc1[nH]c(C(=O)Nc2ccc(C(=O)O)cc2NC2CCNCC2)c(Cl)c1Cl.Cl" ?
## Result 6.27

## Task Find the recorded pIC50 belonging to "Cc1[nH]c(C(=O)Nc2ccc(-c3n[nH]c(=O)o3)cc2N2CCNCC2)c(Cl)c1Cl.Cl" and report it.
## Result 7.75

## Task Please report the recorded pIC50 for "Cc1[nH]c(C(=O)Nc2ccc(C(=O)NCc3n[nH]c(=O)o3)cc2N2CCNCC2)c(Cl)c1Cl.Cl" .
## Result 7.65

====

tgt: DNA gyrase from Mycobacterium tuberculosis (Mycobacterium tuberculosis, UniProt P9WG45)
Sequence (P9WG47 whole entry): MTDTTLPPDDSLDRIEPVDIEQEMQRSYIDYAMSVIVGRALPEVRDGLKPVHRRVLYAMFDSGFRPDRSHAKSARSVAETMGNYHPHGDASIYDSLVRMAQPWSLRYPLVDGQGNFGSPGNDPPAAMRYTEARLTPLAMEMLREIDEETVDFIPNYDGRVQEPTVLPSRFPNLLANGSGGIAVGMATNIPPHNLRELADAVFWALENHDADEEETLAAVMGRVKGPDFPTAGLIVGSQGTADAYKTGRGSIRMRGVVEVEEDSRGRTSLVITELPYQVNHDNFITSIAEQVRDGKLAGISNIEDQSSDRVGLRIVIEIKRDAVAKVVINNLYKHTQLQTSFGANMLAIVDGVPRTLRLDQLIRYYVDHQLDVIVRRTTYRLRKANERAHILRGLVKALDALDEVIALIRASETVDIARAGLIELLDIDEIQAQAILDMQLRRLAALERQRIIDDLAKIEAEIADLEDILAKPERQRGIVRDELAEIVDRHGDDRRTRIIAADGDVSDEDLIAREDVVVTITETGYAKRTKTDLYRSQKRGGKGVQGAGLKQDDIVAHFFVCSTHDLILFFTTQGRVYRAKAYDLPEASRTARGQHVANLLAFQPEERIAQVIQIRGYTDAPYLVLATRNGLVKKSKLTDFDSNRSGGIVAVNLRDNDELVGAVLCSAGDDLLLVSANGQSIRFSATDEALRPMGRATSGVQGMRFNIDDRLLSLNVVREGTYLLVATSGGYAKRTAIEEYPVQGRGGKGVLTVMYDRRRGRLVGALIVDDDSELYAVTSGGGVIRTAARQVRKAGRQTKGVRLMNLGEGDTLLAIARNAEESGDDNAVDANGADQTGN
Sequence (P9WG45 whole entry): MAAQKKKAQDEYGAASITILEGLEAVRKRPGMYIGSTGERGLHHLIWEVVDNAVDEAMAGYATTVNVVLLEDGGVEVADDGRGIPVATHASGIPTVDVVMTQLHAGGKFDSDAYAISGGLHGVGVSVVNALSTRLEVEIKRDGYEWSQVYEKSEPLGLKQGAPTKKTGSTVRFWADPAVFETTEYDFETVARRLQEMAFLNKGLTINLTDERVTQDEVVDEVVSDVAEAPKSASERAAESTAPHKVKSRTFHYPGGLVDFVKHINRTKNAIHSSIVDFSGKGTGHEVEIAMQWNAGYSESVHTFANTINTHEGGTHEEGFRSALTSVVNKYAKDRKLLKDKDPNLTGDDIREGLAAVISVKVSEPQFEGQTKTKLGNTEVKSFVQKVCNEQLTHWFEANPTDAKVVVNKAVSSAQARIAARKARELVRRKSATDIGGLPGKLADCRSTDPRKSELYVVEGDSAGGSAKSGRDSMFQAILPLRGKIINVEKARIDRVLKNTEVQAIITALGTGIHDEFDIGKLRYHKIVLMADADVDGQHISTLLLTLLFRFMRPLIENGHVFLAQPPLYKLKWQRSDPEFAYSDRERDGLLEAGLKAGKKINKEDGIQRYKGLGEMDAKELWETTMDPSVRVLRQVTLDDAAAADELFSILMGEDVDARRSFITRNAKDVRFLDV
method notes: Gel-based supercoiling assay
Assay type: biochemical
study conditions: M. tuberculosis DNA gyrase
Text: Example compound 18 was additionally evaluated against DNA gyrase from Mycobacterium tuberculosis using a gel-based supercoiling assay.
observation type: pIC50
The quantity pIC50 is defined as the negative base-10 logarithm of the molar concentration.

## Task What value of pIC50 has been reported for the following compound? "Cc1[nH]c(C(=O)Nc2ccc(-c3n[nH]c(=O)o3)cc2N2CCC[C@H](N)C2)c(Cl)c1Cl.Cl"
## Result 7.58

====

tgt: E. coli DNA gyrase (Escherichia coli)
Construct: purchased Inspiralis
method notes: biochemical
observation type: IC50 (nM)
Response body: numeric value in nM, unit text excluded.

## Task Provide the documented IC50 with E. coli DNA gyrase (Escherichia coli) as the system for "Cc1[nH]c(C(=O)Nc2ccc(-c3noc(=O)[nH]3)cc2NC2CCNCC2)c(Cl)c1Cl.Cl"
## Result 9.66

====

MIC values for the molecules below.
System: S. aureus ATCC 29213
method notes: Microbroth dilution MIC (CLSI)
Type: cell-based
study conditions: Staphylococcus aureus, ATCC29213; S. aureus ATCC 29213; read-out: MIC
Write down the numeric answer in µg/mL and omit the unit.

# molecule, tgt, MIC, µg/mL
rows = [
    ("Cc1[nH]c(C(=O)Nc2ccc(-c3n[nH]c(=O)o3)cc2OC2CCNCC2)c(Cl)c1Cl.Cl [Example 27]", "S. aureus ATCC 29213", 16),
]

## Task Reported MIC for Cc1[nH]c(C(=O)Nc2ccc(-c3noc(=O)[nH]3)cc2N2CCC(N)CC2)c(Cl)c1Cl.Cl [Example 1] : what is it?
## Result 64

## Task What measured MIC goes with Cc1[nH]c(C(=O)Nc2ccc(-c3noc(=O)[nH]3)cc2N2CCCC(CN)C2)c(Cl)c1Cl.Cl (stereo not drawn) [Example 3] ?
## Result 4

## Task Which measured MIC value corresponds to Cc1[nH]c(C(=O)Nc2ccc(-c3n[nH]c(=O)o3)cc2N2CC[C@H](N)C2)c(Cl)c1Cl.Cl [Example 20] ?
## Result 2

// data source = patent US20250002455A1
